# Tested on: PPARg:RXRa 30nM:10nM, anti-RXR (NR concentration 30 nM, RXRa partner concentration 10 nM)
# Assay name: PBM binding z-score (relative to random genomic background probes); higher = stronger binding; sequences stand for … in GC…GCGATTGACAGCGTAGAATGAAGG
# label = t if PBM binding z-score >= -0.02 else f

Field: example entries. Status: answers known.
{"Chain sequence": "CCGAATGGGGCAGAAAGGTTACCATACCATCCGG", "Class assignment": "t"}
{"Chain sequence": "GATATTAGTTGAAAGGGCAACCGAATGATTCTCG", "Class assignment": "t"}
{"Chain sequence": "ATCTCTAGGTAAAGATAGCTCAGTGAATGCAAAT", "Class assignment": "t"}
{"Chain sequence": "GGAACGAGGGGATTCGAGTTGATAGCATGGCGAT", "Class assignment": "f"}
{"Chain sequence": "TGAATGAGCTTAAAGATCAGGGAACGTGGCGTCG", "Class assignment": "t"}

Query: Decide: is the reported value of PBM binding z-score for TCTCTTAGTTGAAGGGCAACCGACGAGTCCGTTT equal to or greater than -0.02?
Result: t
